Tested on: Staphylococcus aureus KCTC 1621
# maps each entry to its MIC
Give just the numeric value; µM need not be written.

The examples below pair each entry with its known result.
{"structure smiles string": "CC[C@H](C)[C@H](NC(=O)[C@H](CCCCN)NC(=O)[C@H](CCCCN)NC(=O)[C@H](Cc1ccccc1)NC(=O)[C@H](CC(C)C)NC(=O)[C@H](CCCCN)NC(=O)[C@@H](N)Cc1ccccc1)C(=O)N1CCC[C@H]1C(=O)N[C@@H](CCCCN)C(=O)N[C@@H](Cc1ccccc1)C(=O)N[C@@H](CC(C)C)C(=O)N[C@@H](Cc1cnc[nH]1)C(=O)N[C@@H](CC(C)C)C(=O)N[C@@H](C)C(=O)N[C@@H](CCCCN)C(=O)N[C@@H](CCCCN)C(=O)N[C@@H](Cc1ccccc1)C(N)=O", "obs value": 3.12}
{"structure smiles string": "CC[C@H](C)[C@H](NC(=O)CNC(=O)[C@H](CC(C)C)NC(=O)[C@H](CCCN=C(N)N)NC(=O)[C@H](CCCCN)NC(=O)[C@H](Cc1ccccc1)NC(=O)[C@@H](NC(=O)[C@H](CCCCN)NC(=O)[C@H](CCCCN)NC(=O)[C@H](C)N)C(C)C)C(=O)NCC(=O)N[C@@H](C)C(=O)N[C@H](C(=O)N[C@@H](CC(C)C)C(=O)N[C@@H](Cc1c[nH]c2ccccc12)C(=O)N[C@H](C(=O)N[C@@H](CC(C)C)C(=O)N[C@H](C(=O)N[C@H](C(=O)NCC(=O)O)[C@@H](C)O)[C@@H](C)O)C(C)C)C(C)C", "obs value": 3.12}

Consider the record given below.
Provide MIC, system Staphylococcus aureus KCTC 1621, entry "CC[C@H](C)[C@H](NC(=O)[C@H](C)NC(=O)[C@H](CC(C)C)NC(=O)[C@H](Cc1c[nH]c2ccccc12)NC(=O)[C@H](CC(C)C)NC(=O)[C@@H](N)CCCN=C(N)N)C(=O)NCC(=O)N[C@@H](CCCN=C(N)N)C(=O)NCC(N)=O" 16

* * *

Test system: Staphylococcus aureus
reported metric: MIC (µM)
Numbers only; they are read as µM.

Output reported MIC of the compound CC(C)C[C@H](NC(=O)[C@@H](N)Cc1ccccc1)C(=O)NCC(=O)N[C@H](C(=O)N[C@H](C(=O)N[C@@H](Cc1ccccc1)C(=O)N[C@@H](CCCCN)C(=O)N[C@@H](CCCCN)C(=O)N[C@@H](C)C(=O)N[C@@H](CO)C(=O)N[C@@H](CCCCN)C(=O)N[C@H](C(=O)N[C@@H](Cc1ccccc1)C(=O)N[C@@H](CCCCN)C(=O)N[C@@H](C)C(=O)N[C@H](C(=O)N[C@@H](Cc1ccccc1)C(=O)NCC(=O)N[C@@H](CCCCN)C(=O)N[C@H](C(=O)O)C(C)C)C(C)C)C(C)C)C(C)C)C(C)C [FLGVVFKKASKVFKAVFGKV] on Staphylococcus aureus. 116

* * *

Measured MIC, listed per entry.
Test system: Pseudomonas aeruginosa PAO1
assay text: ≥ marks a high value that may be exact or a test limit, other limits are often not marked, values filed in µg/mL are converted to µM

Here is how some compounds turned out for MIC.
{"structure smiles string": "CC[C@H](C)[C@H](NC(=O)[C@H](CCC(N)=O)NC(=O)CN)C(=O)N[C@H](C(=O)N[C@@H](CC(N)=O)C(=O)N[C@@H](CC(C)C)C(=O)N[C@@H](CCCCN)C(=O)N[C@@H](C)C(=O)N[C@@H](CO)C(=O)N[C@@H](CC(C)C)C(=O)N[C@@H](CC(=O)O)C(=O)N[C@@H](CC(C)C)C(=O)N[C@@H](CC(C)C)C(N)=O)[C@@H](C)CC", "reported metric": "MIC", "obs value": "> 119 µM"}
{"structure smiles string": "CSCC[C@H](NC(=O)[C@H](CO)NC(=O)[C@H](CO)NC(=O)[C@H](CC(C)C)NC(=O)[C@H](C)NC(=O)CNC(=O)[C@H](Cc1ccccc1)NC(=O)[C@H](CC(C)C)NC(=O)[C@H](CC(C)C)NC(=O)[C@@H]1CCCN1C(=O)[C@H](Cc1ccccc1)NC(=O)[C@@H](N)Cc1ccccc1)C(=O)N[C@@H](CCSC)C(=O)N1CCC[C@H]1C(=O)N[C@@H](CCCCN)C(=O)N[C@@H](CC(C)C)C(=O)N[C@@H](Cc1ccccc1)C(N)=O", "reported metric": "MIC", "obs value": "1.28 µM"}

Answer with reported MIC of "CC(C)C[C@H](NC(=O)[C@H](CC(C)C)NC(=O)[C@H](CCCCN)NC(=O)CNC(=O)[C@H](CC(C)C)NC(=O)[C@H](C)NC(=O)[C@H](CO)NC(=O)[C@H](CC(C)C)NC(=O)[C@H](CC(C)C)NC(=O)[C@H](CO)NC(=O)[C@H](CC(C)C)NC(=O)[C@H](CC(C)C)NC(=O)CN)C(N)=O" > 25 µM
